Field: koff. Provide a value for each of the binders that follow.
# system_name: T1, Cynomolgus Factor P (cynomolgus)
# T1 construct: Purified from cynomolgus serum for SET/Biacore; Factor P of cynomolgus serum in the functional assays; also called Cyno Factor P; cyno FP
# assay_notes: Biacore SPR, captured Factor P
Numeric answer only, unit s⁻¹ assumed.

Quick one: koff for NVS967 (Fab, V domains shown, Disulfide-bridged Fab; also called Fab NVS967) VH: EVQLVQSGAEVKKPGASVKVSCKASGYTFTSHYMHWVRQAPGQGLEWMGNINPVDGGTEYAQKFQGRVTMTRDTSISTAYMELSSLRSEDTAVYYCARDGIEHGGHYYWGYLFDIWGQGTLVTVSS VL: SYVLTQPPSVSVAPGKTARISCSGDSIREYYVHWYQQKPGQAPVLVIGDDTNRPSGIPERFSGSNSGNTATLTISRAQAGDEADYYCAAWDFSPAIVFGGGTKLTVLG ?
0.0006

Quick one: koff for NVS962-S (Fab, V domains shown, NVS962 with heavy chain N30 replaced with serine) VH: EVQLVQSGAEVKKPGSSVKVSCKASGGTFSSYAISWVRQAPGQGLEWMGRIIPIFGTANYAQKFQGRVTITADESTSTAYMELSSLRSEDTAVYYCARHGGYSFDSWGQGTLVTVSS VL: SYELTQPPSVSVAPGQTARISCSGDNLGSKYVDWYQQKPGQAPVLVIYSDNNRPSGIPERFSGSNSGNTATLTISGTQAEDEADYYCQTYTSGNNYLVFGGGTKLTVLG ?
6.66e-05

Quick one: koff for NVS965 (Fab, V domains shown, Disulfide-bridged Fab; also called Fab NVS965) VH: EVQLVQSGAEVKKPGSSVKVSCKASGGTFNSYAISWVRQAPGQGLEWMGRIIPIFGTANYAQKFQGRVTITADESTSTAYMELSSLRSEDTAVYYCARHGGYSFDSWGQGTLVTVSS VL: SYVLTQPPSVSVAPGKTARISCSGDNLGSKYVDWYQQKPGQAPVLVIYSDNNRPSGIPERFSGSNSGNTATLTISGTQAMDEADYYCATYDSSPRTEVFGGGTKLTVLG ?
6.22e-05
